Listing: percent control mean + SD: plasma urea N of selected compounds
protocol: In vivo acute toxicity test of injected ligands in mice
conditionSummary: protocol I, 100 µmol kg^-1 x 10 daily i.p.; study length 11 d
Give a bare numeral; the unit percent control is implied.

Before answering, review these 3 worked examples.
entrySmiles: Cn1ccc(C(=O)NCCN(CCNC(=O)c2ccn(C)c(=O)c2O)CCNC(=O)c2ccn(C)c(=O)c2O)c(O)c1=O
reportedProperty: percent control mean + SD: plasma urea N
recordedMeasurement: 112

entrySmiles: Cn1ccc(C(=O)NCCCCCNC(=O)c2ccn(C)c(=O)c2O)c(O)c1=O
reportedProperty: percent control mean + SD: plasma urea N
recordedMeasurement: 89

entrySmiles: Cn1ccc(C(=O)NCCN(CCNC(=O)c2ccn(C)c(=O)c2O)CCN(CCNC(=O)c2ccn(C)c(=O)c2O)CCNC(=O)c2ccn(C)c(=O)c2O)c(O)c1=O
reportedProperty: percent control mean + SD: plasma urea N
recordedMeasurement: 223

Input line: Identify the reported percent control mean + SD: plasma urea N for the following entry. Cn1ccc(C(=O)NCCOCCNC(=O)c2ccn(C)c(=O)c2O)c(O)c1=O
Output line: 83

Reference for the values: patent EP0840727B1
